IC50 for assorted molecules
test system: HCT15 (human colon adenocarcinoma); assay: SRB cytotoxicity test, HCT15; assay type: cell-based; conditions: Homo sapiens, HCT-15, 48 h, Table 3, 48 hours; read-out: Cytotoxicity IC50, HCT15

Study these solved cases before continuing.
[[record]]
molecule = "C=C[C@]1(C)C=C2CC[C@@H]3[C@](C)(CCC[C@@]3(C)C(=O)O)[C@H]2CC1"
value = "13.6 µg/mL"

[[record]]
molecule = "CC(C)(O)c1ccc2c(c1)CC[C@H]1[C@](C)(C(=O)O)CCC[C@]21C [compound (k), 15-hydroxydehydroabietic acid]"
value = "98.2 µg/mL"

[[record]]
molecule = "C=C1CC[C@H]2O[C@]2(C)CC[C@@H]2[C@@H]1CC2(C)C [compound (l), caryophyllene oxide]"
value = "26.8 µg/mL"


Please turn your attention to the following entry.
Data request: Would you mind telling me what IC50 value was observed for C=C[C@]1(C)CCC2[C@@]3(C)CCC[C@@](C)(CO)C3CC[C@@]2(C)O1 (single isomer, unassigned; ent-18) [compound (h), ent-18-hydrorxy-13-epimanoyl oxide] ?
Data returned: 10 µg/mL
